Test: small molecules boosting NK-mediated OVCAR3 lysis – imaging, primary NK cells, calcein-AM imaging, primary screen (AID 1508625);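 also: compound given to NK cells 16 h before adding targets at 1.5 to 1 ratio; more negative robust z means stronger NK killing of tumor cells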
Settings: OVCAR3 lysis by primary NK cells, at 5 µM; measured here: robust Z-score, single-point normalisation
Response field label takes Yes when z-score is strictly below -1 and No in all other cases.

Q: Lab note: z-score threshold -1. Does this compound come in strictly under it? Cc1occc1C(=O)N1N=C(C2CC2)CC1(O)C(F)(F)F (configuration not stated)
Ans: Yes

Q: Lab note: z-score threshold -1. Does this compound come in strictly under it? `CC(=O)c1c(C(C)=O)c(C)n(-c2ccc(Cl)c(N)c2)c1C`
Ans: Yes

Q: Lab note: z-score threshold -1. Does this compound come in strictly under it? Cc1ccc(-n2cnc3cc(C(=O)NCC4CCCO4)ccc32)cc1Cl (configuration not stated)
Ans: No

Q: Lab note: z-score threshold -1. Does this compound come in strictly under it? `CCc1ccc(-n2c(C)nc3cc(C(=O)NCc4cccnc4)ccc32)cc1`
Ans: Yes

Q: Lab note: z-score threshold -1. Does this compound come in strictly under it? `COc1ccc(-n2c(=S)[nH]c3cc(C(=O)O)ccc3c2=O)cc1`
Ans: Yes

Q: Lab note: z-score threshold -1. Does this compound come in strictly under it? `COCc1cccc(NS(=O)(=O)Cc2ccccc2)c1`
Ans: No

Q: Lab note: z-score threshold -1. Does this compound come in strictly under it? `O=C(Oc1ccc(C(=S)N2CCCCC2)cc1)c1ccccc1`
Ans: No

Q: Lab note: z-score threshold -1. Does this compound come in strictly under it? `Cc1ccc(-n2cnc3cc(C(=O)NC4CCCC4)ccc32)cc1Cl`
Ans: No

Q: Lab note: z-score threshold -1. Does this compound come in strictly under it? `CCN(c1ccccc1C(=O)O)S(=O)(=O)c1cccc2nsnc12`
Ans: Yes

Q: Lab note: z-score threshold -1. Does this compound come in strictly under it? `Cc1ccc2c(C)nc(SCc3ccc(Cl)cc3)nc2c1`
Ans: No

Q: Lab note: z-score threshold -1. Does this compound come in strictly under it? COc1cccc(C(=O)N2CCN(CC3CC=CCC3)CC2)c1OC (configuration not stated)
Ans: Yes

Q: Lab note: z-score threshold -1. Does this compound come in strictly under it? `CCC(CC)NC(=O)c1cccc(OC)c1OC`
Ans: No

Where do these numbers come from? They come from PubChem BioAssay AID1508625.
